systemUnderTest: Ich-2 (Caspase-4) (Homo sapiens, UniProt P49662)
Sequence (P49662 81-270 limits assumed): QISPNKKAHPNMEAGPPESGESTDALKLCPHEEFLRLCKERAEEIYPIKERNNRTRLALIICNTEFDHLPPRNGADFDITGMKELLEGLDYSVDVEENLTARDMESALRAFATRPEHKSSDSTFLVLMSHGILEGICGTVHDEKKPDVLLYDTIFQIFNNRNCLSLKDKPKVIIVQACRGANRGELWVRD
Sequence (P49662 290-377 limits assumed): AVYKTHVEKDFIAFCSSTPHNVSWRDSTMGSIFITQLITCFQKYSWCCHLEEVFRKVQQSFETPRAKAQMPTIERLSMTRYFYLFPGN
pIC50: −log10 of the molar value.
Returns Yes if the recorded pIC50 is greater than or equal to 4, and No otherwise.

compound | cat
O=CC(CC(=O)O)NS(=O)(=O)c1ccccc1Oc1ccc(-c2ccccc2)cc1 (stereo not drawn) | Yes
Cc1ccc(Oc2ccccc2S(=O)(=O)N[C@H](C=O)CC(=O)O)cc1 | Yes
O=CC(CC(=O)O)NS(=O)(=O)c1ccccc1CCc1ccccc1 (stereo not drawn) | No
O=CC(CC(=O)O)NS(=O)(=O)c1ccccc1OC1CCCCC1 (stereo not drawn) | Yes
CCC(CC)COc1ccccc1S(=O)(=O)NC(C=O)CC(=O)O (stereo not drawn) | No
CCC(CC)c1ccc(Oc2ccccc2S(=O)(=O)NC(C=O)CC(=O)O)cc1 (stereo not drawn) | Yes
